Target: T1, human CD81 on CD81-expressing cells (Jurkat E6.1, human PBMC, Ramos) (human, UniProt P60033 1-236)
T1 sequence: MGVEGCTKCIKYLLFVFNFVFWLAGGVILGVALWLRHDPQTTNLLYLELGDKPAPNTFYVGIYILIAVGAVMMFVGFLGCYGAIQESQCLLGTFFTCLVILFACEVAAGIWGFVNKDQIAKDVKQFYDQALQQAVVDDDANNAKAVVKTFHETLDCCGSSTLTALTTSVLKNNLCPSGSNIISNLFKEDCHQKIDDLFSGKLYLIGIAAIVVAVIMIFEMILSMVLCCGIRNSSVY
Experiment: cell-based or functional assay
Kindly state Jurkat chemotaxis (% of control IgG4) at 10 µg/mL for each of the entries shown.
Answer in %, number only, no unit symbol.

Look up Jurkat chemotaxis (% of control IgG4) at 10 µg/mL: 002-D08 (antibody, human IgG4 S228P, lambda, V domains shown, IgG4 S228P) VH: EVQLLESGGGLVQPGGSLRLSCATSGFPFSSNYMSWVRQAPGKGLEWVSYISSSSTYSDYADSVKGRFSISRDNSKNTLYLQMNSLRAEDTAVYYCARYSYGRDNFDYWGQGTLVTVSS VL: QSVLTQPSSASGTPGQRVTISCTGSTSNIGAGYATHWYQQLPGTAPKLLIYGNSNRPSGVPDRFSGSKSGTSASLAISGLRSEDEADYYCQSYDTNLSVWVFGGGTKLTVLG
14

Look up Jurkat chemotaxis (% of control IgG4) at 10 µg/mL: 002-A07 N113Q (antibody, human IgG4 S228P, lambda, V domains shown, IgG4 S228P; glycosylation site mutant of 002-A07 VL) VH: EVQLLESGGGLVQPGGSLRLSCAASGFTFSSNYMSWVRQAPGKGLEWVSYISSSSTYTDYADSVKGRFTISRDNSKNTLYLQMNSLRAEDTAVYYCARYSYGRDNFDYWGQGTLVTVSS VL: QSVLTQPPSASGTPGQRVTISCTGSTSNIGAGYDTHWYQQLPGTAPKLLIYGNSNRPSGVPDRFSGSKSGTSASLAISGLRSEDEADYYCQSYDTQLSVWVFGGGTKLTVLG
12

Look up Jurkat chemotaxis (% of control IgG4) at 10 µg/mL: 002-H03 (antibody, human IgG4 S228P, lambda, V domains shown, IgG4 S228P) VH: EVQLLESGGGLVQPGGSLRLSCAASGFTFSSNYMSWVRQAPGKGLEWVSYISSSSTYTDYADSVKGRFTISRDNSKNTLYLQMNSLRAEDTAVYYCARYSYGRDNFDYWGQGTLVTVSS VL: QSVLTQPSSASGTPGQRVTISCTGSTSNIGAGYDTHWYQQLPGTAPKPLIYGNSNRPSGVPDRFSGSKSGTSASLAISGLRSEDEADYYCQSYDTNLSAWVFGGGTKLTVLG
-3

Look up Jurkat chemotaxis (% of control IgG4) at 10 µg/mL: 002-B07 (antibody, human IgG4 S228P, lambda, V domains shown, IgG4 S228P) VH: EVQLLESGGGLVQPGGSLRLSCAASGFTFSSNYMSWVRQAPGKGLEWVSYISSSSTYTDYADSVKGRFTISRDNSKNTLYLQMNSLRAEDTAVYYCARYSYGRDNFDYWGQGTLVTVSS VL: QSVLTQPSSASGTPGQRVTISCTGSTSNIGAGYDTHWYQQLPGTAPKLLIYGNSNRPSGVPDRFSGSKSGTSASLAISGLRSEDEADYYCQSYDTNLSGWVFGGGTKLTVLG
-9

Look up Jurkat chemotaxis (% of control IgG4) at 10 µg/mL: 002-A07 N113G (antibody, human IgG4 S228P, lambda, V domains shown, IgG4 S228P; glycosylation site mutant of 002-A07 VL) VH: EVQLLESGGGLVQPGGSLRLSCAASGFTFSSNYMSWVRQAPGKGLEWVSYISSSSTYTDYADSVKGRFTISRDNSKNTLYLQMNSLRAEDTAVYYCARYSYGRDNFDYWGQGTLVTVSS VL: QSVLTQPPSASGTPGQRVTISCTGSTSNIGAGYDTHWYQQLPGTAPKLLIYGNSNRPSGVPDRFSGSKSGTSASLAISGLRSEDEADYYCQSYDTGLSVWVFGGGTKLTVLG
7

Look up Jurkat chemotaxis (% of control IgG4) at 10 µg/mL: 002-A07 S115A (antibody, human IgG4 S228P, lambda, V domains shown, IgG4 S228P; glycosylation site mutant of 002-A07 VL) VH: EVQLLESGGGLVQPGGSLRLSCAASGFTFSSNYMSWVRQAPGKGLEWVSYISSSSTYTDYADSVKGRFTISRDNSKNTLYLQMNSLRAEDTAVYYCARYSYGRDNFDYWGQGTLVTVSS VL: QSVLTQPPSASGTPGQRVTISCTGSTSNIGAGYDTHWYQQLPGTAPKLLIYGNSNRPSGVPDRFSGSKSGTSASLAISGLRSEDEADYYCQSYDTNLAVWVFGGGTKLTVLG
-9

Look up Jurkat chemotaxis (% of control IgG4) at 10 µg/mL: 002-B05 (antibody, human IgG4 S228P, lambda, V domains shown, IgG4 S228P) VH: EVQLLESGGGLVQPGGSLRLSCAASGFTFSSNYMSWVRQAPGKGLEWVSYISSSSTYTDYADSVKGRFTISRDNSKNTLYLQMNSLRAEDTAVYYCARYSYSRDNFDYWGQGTLVTVSS VL: QSVLTQPPSASGTPGQRVTISCTGSTSNIGAGYGTHWYQRLPGTAPKLLIYGNSNRPSGVPDRFSGSKSGTSASLAISGLRSEDEADYYCQSYDTNLSVWVFGGGTKLTVLG
-10

Look up Jurkat chemotaxis (% of control IgG4) at 10 µg/mL: 003-A10 (antibody, human IgG4 S228P, lambda, V domains shown, IgG4 S228P) VH: EVQLLESGGGLVQPGGSLRLSCAASGFTFSSNYMSWVRQAPGKGLEWVSYISSSSTYTDYADSVKGRFTISRDNSKNTLYLQMNSLRAEDTAVYYCARYSYGRDTFDYWGQGTLVTVSS VL: QSVLTQPFSASGTPGQRVTISCTGSTSNIGAGYDTHWYQQLPGTAPKLLIYGNSNRPSGVPDRFSGSKSGTSASLAISGLRSEDEADYYCQSYDTNLSVWVFGGGTKLTVLG
3

Look up Jurkat chemotaxis (% of control IgG4) at 10 µg/mL: 002-A07 S115G (antibody, human IgG4 S228P, lambda, V domains shown, IgG4 S228P; glycosylation site mutant of 002-A07 VL) VH: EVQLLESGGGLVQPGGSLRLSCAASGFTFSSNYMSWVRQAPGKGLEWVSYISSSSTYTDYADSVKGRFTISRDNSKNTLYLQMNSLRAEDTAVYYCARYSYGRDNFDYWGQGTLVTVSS VL: QSVLTQPPSASGTPGQRVTISCTGSTSNIGAGYDTHWYQQLPGTAPKLLIYGNSNRPSGVPDRFSGSKSGTSASLAISGLRSEDEADYYCQSYDTNLGVWVFGGGTKLTVLG
-3

Look up Jurkat chemotaxis (% of control IgG4) at 10 µg/mL: 002-H02 (antibody, human IgG4 S228P, lambda, V domains shown, IgG4 S228P) VH: EVQLLESGGGLVQPGGSLRLSCAASGFTFSSNYMSWVRQAPGKGLEWVSYISSSSTYTDYADSVKGRFTISRDNSKNTLYLQMNSLRAEDTAVYYCARYSYGRDSFDYWGQGTLVTVSS VL: QSVLTQPSSASGTPGQRVTISCTGSTSNIGAGYGTHWYQQLPGTAPKLLIYGNSNRPSGVPDRFSGSKSGTSASLAISGLRSEDEADYYCQSYDTNLSVWVFGGGTKLTVLG
-2

Value source: patent US20150139990A1
